biological target: MDR1 (Homo sapiens, UniProt P08183); construct: host or cells: MDCK-MDR1 (Preadyport); assay: MDR1 efflux substrate assay in MDCK-MDR1; assay type: in vitro ADME; details: dog; MDCK-MDR1, 5µM, 60 min, pH 7.4; read-out: Papp B (acceptor) to A (donor)
Sequence (P08183 whole entry): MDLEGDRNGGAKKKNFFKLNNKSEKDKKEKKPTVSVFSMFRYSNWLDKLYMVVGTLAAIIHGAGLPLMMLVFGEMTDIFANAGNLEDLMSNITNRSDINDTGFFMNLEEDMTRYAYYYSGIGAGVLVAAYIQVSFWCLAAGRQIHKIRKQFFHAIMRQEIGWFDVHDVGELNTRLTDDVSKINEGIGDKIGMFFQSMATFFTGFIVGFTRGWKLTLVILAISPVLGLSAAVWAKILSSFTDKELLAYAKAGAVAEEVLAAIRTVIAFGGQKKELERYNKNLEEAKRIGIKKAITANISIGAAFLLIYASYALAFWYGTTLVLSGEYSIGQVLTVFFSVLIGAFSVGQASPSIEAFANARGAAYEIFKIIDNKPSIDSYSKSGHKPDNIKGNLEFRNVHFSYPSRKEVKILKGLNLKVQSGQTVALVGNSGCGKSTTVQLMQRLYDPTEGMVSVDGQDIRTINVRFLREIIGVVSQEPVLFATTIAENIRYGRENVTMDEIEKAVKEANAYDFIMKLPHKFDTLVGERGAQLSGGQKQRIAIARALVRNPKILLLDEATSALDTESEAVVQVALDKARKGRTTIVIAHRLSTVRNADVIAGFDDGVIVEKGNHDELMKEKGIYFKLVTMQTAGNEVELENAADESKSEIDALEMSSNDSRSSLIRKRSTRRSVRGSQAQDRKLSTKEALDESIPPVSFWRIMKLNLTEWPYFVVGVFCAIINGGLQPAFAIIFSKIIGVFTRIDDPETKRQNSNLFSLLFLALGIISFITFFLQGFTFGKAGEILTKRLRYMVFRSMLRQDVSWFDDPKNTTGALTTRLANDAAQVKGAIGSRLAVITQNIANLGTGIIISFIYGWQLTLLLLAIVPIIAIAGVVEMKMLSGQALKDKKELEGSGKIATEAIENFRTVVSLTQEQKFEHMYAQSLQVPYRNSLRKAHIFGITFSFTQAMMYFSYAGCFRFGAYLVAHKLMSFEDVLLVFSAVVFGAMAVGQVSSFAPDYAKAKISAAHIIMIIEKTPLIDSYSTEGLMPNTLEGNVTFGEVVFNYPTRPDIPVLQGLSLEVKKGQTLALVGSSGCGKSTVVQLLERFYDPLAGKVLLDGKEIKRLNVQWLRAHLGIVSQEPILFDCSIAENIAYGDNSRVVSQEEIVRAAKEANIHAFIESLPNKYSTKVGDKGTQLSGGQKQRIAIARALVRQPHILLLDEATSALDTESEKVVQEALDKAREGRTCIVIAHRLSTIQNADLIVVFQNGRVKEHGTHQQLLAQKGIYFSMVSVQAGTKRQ

{"columns": ["smiles.entry", "Papp B→A at 1 h, 5 µM [×10⁻⁶ cm/s]"],
 "data": [
  ["N[C@H]1CC[C@H](Nc2nc(NCc3ccc(-c4ccccn4)cc3)n3ncc(Br)c3n2)CC1", 36.9]
]}

---

# Lookup of reported IC50 keyed by entry
system: NCI-N87; assay: In vitro cytotoxicity assay (MTT); assay type: cell-based, human; conditions: Homo sapiens, NCI-N87, 144 h, 6 days incubation

{"columns": ["smiles.entry", "IC50"],
 "data": [
  ["Brc1cnn2c(NCc3ccc(-c4ccccn4)cc3)nc(N[C@@H]3CCNC3)nc12", "1.42 nM"],
  ["Brc1cnn2c(NCc3ccc(-c4ccccn4)cc3)nc(NC[C@@H]3CCCN3)nc12", "4.27 nM"],
  ["NCCNc1nc(NCc2ccc(-c3ccccn3)cc2)n2ncc(Br)c2n1", "0.42 nM"],
  ["N[C@H]1CC[C@H](Nc2nc(NCc3ccc(-c4ccccn4)cc3)n3ncc(I)c3n2)CC1", "2.42 nM"]
]}
